Below: a set of entries, each annotated with reported pIC50.
- target-or-test-system: UniProt O75530
- Sequence (O75530 whole entry): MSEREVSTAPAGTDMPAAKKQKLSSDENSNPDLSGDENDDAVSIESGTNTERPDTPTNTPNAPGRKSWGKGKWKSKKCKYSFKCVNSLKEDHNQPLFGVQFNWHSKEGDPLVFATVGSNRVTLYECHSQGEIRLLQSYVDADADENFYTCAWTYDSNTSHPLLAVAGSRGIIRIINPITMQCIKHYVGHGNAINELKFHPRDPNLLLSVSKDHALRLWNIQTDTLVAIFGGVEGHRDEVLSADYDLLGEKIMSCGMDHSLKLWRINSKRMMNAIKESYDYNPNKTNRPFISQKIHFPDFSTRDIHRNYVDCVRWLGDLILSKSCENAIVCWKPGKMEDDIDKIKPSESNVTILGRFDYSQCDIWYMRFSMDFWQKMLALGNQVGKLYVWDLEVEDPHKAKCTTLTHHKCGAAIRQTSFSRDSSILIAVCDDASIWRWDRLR
pIC50: −log10 of the molar value.
recorded-endpoint: pIC50

In [3]: df
Out[3]:
                                entry_smiles  numeric_readout
 0       c1ccc(-c2ccc(NCc3ccco3)n3cncc23)cc1             4.83
 1  CN(C)Cc1ccc(-c2cc(C#N)c(NCc3ccno3)n3cnnc23)cc1             7.16
 2  CN(C)Cc1ccc(-c2cc(C#N)c(NCc3ccccc3)n3cnnc23)cc1             4.66
 3  Cc1ccc(CNc2c(C#N)cc(-c3ccc(CN(C)C)cc3)c3nncn23)s1             5.65
 4  CN(C)Cc1ccc(-c2cnc(NCc3ccon3)n3cnnc23)cc1             6.11
 5  CN(C)Cc1ccc(-c2cnc(NCc3ccno3)n3cnnc23)cc1             6.89
 6  COc1ccccc1CNc1ncc(-c2ccc(CN(C)C)cc2)c2nncn12             7.03
 7     N#Cc1cc(-c2ccccc2F)c2nncn2c1NCc1ccco1             7.52
 8  CN(C)Cc1ccc(-c2cnc(NCc3ccoc3)n3cnnc23)cc1             7.72
 9  CN(C)Cc1ccc(-c2cc(C#N)c(NCc3ccon3)n3cnnc23)cc1             7.16
10  CN(C)Cc1ccc(-c2cc(C#N)c(NCc3ccc(F)s3)n3cnnc23)cc1             6.29
11  COc1ccccc1CNc1c(C#N)cc(-c2ccc(CN(C)C)cc2)c2nncn12             4.83
12      N#Cc1cc(-c2ccccc2)c2nncn2c1NCc1ccco1             7.21
13  CS(=O)(=O)c1ccc(-c2cnc(NCc3ccco3)n3cnnc23)cc1             7.66
14  CN(C)Cc1ccc(-c2cnc(NCc3cccs3)n3cnnc23)cc1             7.03
15  CN(C)Cc1ccc(-c2cc(C#N)c(NCc3cnco3)n3cnnc23)cc1             6.82
16  N#Cc1c2c(c3nncn3c1NCc1ccco1)CN(Cc1ccccc1)CC2             5.39
17                 N#Cc1ccc2nncn2c1NCc1ccco1             6.00
18  CN(C)Cc1ccc(-c2cnc(NCc3ccc(F)s3)n3cnnc23)cc1             6.82
19  CN(C)Cc1ccc(-c2cnc(NCc3ccco3)n3cnnc23)cc1             7.89
20       c1ccc(-c2cnc(NCc3ccco3)n3cnnc23)cc1             7.28
21  Cc1ccsc1CNc1c(C#N)cc(-c2ccc(CN(C)C)cc2)c2nncn12             4.66

---

Recorded AUC/dose for the following compounds
- Test system: Mus musculus
- experiment: Dose normalized AUC in CD-1 mouse at 1 mg/kg, iv by LC-MS/MS analysis
- Type: ADME, organism-based
- details: in vivo
recorded-endpoint: AUC/dose (nM·h)

In [3]: df
Out[3]:
                                   compound  numeric_readout
0  CCN(c1cc(-c2ccc(CN3CCOCC3)cc2)cc(C(=O)NCc2c(C)cc(C)[nH]c2=O)c1C)C1CCOCC1 [TAZEMETOSTAT]             1303
1  c1coc(CNc2ncc(-c3ccc(CN4CCCC4)cc3)c3nncn23)c1              765
2  CS(=O)(=O)c1ccc(-c2cnc(NCc3ccco3)n3cnnc23)cc1              534
3     N#Cc1cc(-c2ccccc2F)c2nncn2c1NCc1ccco1             1751
